IC50 at 3 days: recorded values
- Assay: Cytotoxicity against human HepG2 cells assessed as cell growth inhibition incubated for 3 days by CellTiter-Glo reagent-based luminescence assay
- Format: toxicity
Supply the numeric figure in µM, leaving out any unit text.

Solved entries:
Record Smiles | IC50 at 3 days / µM
Cc1ccc(-c2cc(C(F)(F)F)c3c(N)c(C(=O)Nc4cccc(C)c4C)sc3n2)cc1 | 60
COc1ccc(-c2cc(C)c3c(N)c(C(=O)Nc4cccc(C)c4C)sc3n2)cc1 | 27
Nc1c(C(=O)N2CCOCC2)sc2nc(-c3ccc(F)cc3)ccc12 | 41
COc1ccc(-c2cc(C(F)(F)F)c3c(N)c(C(=O)Nc4cccc(C)c4C)sc3n2)cn1 | 31
Nc1c(C(=O)N2CCOCC2)sc2nc(-c3ccoc3)ccc12 | 50

Quick one: IC50 at 3 days of COc1ccc(-c2cc(C(F)(F)F)c3c(N)c(C(=O)N4CCC4)sc3n2)cc1 ?
62

Which value of IC50 at 3 days has been reported for COc1ccc(-c2cc(C(F)(F)F)c3c(N)c(C(=O)Nc4cc(C)ccc4C)sc3n2)cc1 in the records?
23

Returns the measured IC50 at 3 days for the input compound. Input: Cc1ccc(NC(=O)c2sc3nc(-c4ccccc4)cc(C(F)(F)F)c3c2N)cc1
24

For the compound COc1ccc(-c2ccc3c(N)c(C(=O)N4CCOCC4)sc3n2)cc1 , what IC50 at 3 days is on record?
63

// IC50 at 3 days lookup, key: Nc1c(C(=O)Nc2ccccc2C(F)(F)F)sc2nc(-c3ccccc3)cc(C(F)(F)F)c12
97

Give the measured IC50 at 3 days of COc1ccc(-c2cc(C(F)(F)F)c3c(N)c(C(=O)N4CCCC4(C)C)sc3n2)cc1 .
78

Which measured IC50 at 3 days value corresponds to COc1ccc(-c2cc(C(F)(F)F)c3c(N)c(C(=O)N4CC(OC)C4)sc3n2)cc1 ?
50
